Test: NCI Yeast Anticancer Drug Screen. Data for the mec2-1 strain (AID 157)
Conditions: S. cerevisiae mec2-1 strain, at 50.0 µM, active compounds read high
The panel holds about 79,000 compounds, 15% with a hit somewhere; the sample as a whole holds those more often.
Observed property: growth inhibition (%)

CC1(C)CC(O)CC(O)C1 (configuration not stated)
-0.55
CC(C)CCCC(C)C1CCC2C3CCC(O)C(C)(CCCO)C3CCC12C (configuration not stated)
-3.85
CC(C)(C)OC(=O)N(CCCCNC(=O)C(F)(F)F)CCCNC(=O)C(F)(F)F
-30.3
O=C(CN1C(=O)CC(c2ccccc2)(c2ccccc2)C1=O)N1CCN(CCO)CC1
-4.6
CC(C)(S(=O)(=O)Oc1ccccc1)S(=O)(=O)Oc1ccccc1
9.95
Cc1ccc(C(=O)CC2=NC3NN(c4ccccc4)C(=O)C3=C2CC(=O)c2ccc(C)cc2)cc1 (configuration not stated)
2.4
CCc1nc(N)nc(N)c1-c1ccc2nnn(O)c2c1
-7.45
CCOC(CN1CCCCC1)OCC
-7.6
N#CC(=Nc1cc(Cl)cc(Cl)c1)C1=C(O)c2ccccc2C1=O
0.6
O=C(Nc1ccc(N=C=S)cc1Cl)c1cc(Cl)cc(Cl)c1O
56.9
CC(=O)C(C)C(C)=O
0.7
C/C(CC(=O)N(C(C)C)C(C)C)=N\NC(=O)c1ccncc1
-12.3

====

Experiment: NCI Yeast Anticancer Drug Screen. Data for the mec2-1 strain (AID 157)
Conditions: S. cerevisiae mec2-1 strain, at 50.0 µM
About 79,000 compounds went through this panel and 15% of them were active in at least one assay; those are over-represented in the sample as a whole. The source made the active and inactive calls. Cut-off read from the data, not from the text of the source: active = growth inhibition above about 70%; inactive = the rest.
Labels: active, inactive

CSc1cnn(CCC#N)c(=O)n1
inactive
[B-]([C+]1CCCCC1)N1C=CC=CC1
inactive
OC(C#Cc1ccccc1)(C#Cc1ccccc1)/C=C/c1ccccc1
inactive
COc1ccc(C2C(N)=NCC2c2ccccn2)cc1 (stereo not drawn)
inactive
COc1ccc(C(=O)/C=C/c2ccc(OCC(=N)N)cc2)cc1
inactive
COC1=CC(=O)C(CC=C(C)C)=CC1=O
inactive
O=C(O)c1c[n+]([O-])ccc1Cl
inactive
CCCOc1ccc(C(=O)C(=O)c2ccccc2)cc1
inactive
CN(C)Cc1ccc2ccccc2c1CC(O)(c1ccccc1)c1ccccc1
inactive
CC1(C)COCOC1c1ccccc1 (stereo not drawn)
inactive
CC(CC#N)=C(c1ccccc1)c1ccccc1
inactive
O=C(O)/C(=C\c1cccc(O)c1)c1ccccc1
inactive
O=C1C[C@H]2CCCC[C@@H]2O1
inactive
COc1cccc(NC(=O)CC(=O)N2N=C(n3ccc4ccccc43)CC2c2ccccc2)c1 (stereo not drawn)
inactive
CC(=O)NCS(=O)(=O)O
inactive
O=S1(=O)C=CC(N/N=C\c2ccc3ccccc3n2)=C1
inactive
CCC1CC/C(=N\Nc2ccc([N+](=O)[O-])cc2[N+](=O)[O-])c2ccc3c(C)ccc(C)c3c21 (stereo not drawn)
inactive
N=C(N)c1ccc(OCCOc2cccc(N)c2)cc1
inactive
Cc1ccc(S(=O)(=O)Nc2ccc(C(=O)Cl)cc2)cc1
inactive
Cc1ccc(-n2nc(C)cc2C)nn1
inactive
CCCC1OCC(CC)([N+](=O)[O-])CO1 (stereo not drawn)
inactive
COC(=O)CC1(C(=O)OC)Oc2ccc(Br)cc2C(=O)N1c1ccc(Br)cc1Cl (stereo not drawn)
inactive
COC(=O)CCN(C)c1ccccc1
inactive
O=C(N=Nc1c(O)[nH]c2ccc(Br)cc12)c1ccco1
inactive
COC1(C)CCC2(O)C(=O)OC3C(O)COC32O1 (stereo not drawn)
inactive
O=C1c2ccccc2C(=O)N1CN1CCC(CCCC2CCN(CN3C(=O)c4ccccc4C3=O)CC2)CC1
inactive
Cc1ccc2c(c1)NC(c1ccc(C(=O)O)cc1)c1cccn1-2 (stereo not drawn)
inactive
COc1cc(/C=N/NC(N)=O)cc(OC)c1O
inactive
Nc1nc2c(ncn2CC2CCOC2=O)c(=O)[nH]1 (stereo not drawn)
inactive
CSc1nc2c(nc(N)n2C2OC(CO)C(O)C(O)C2O)c(=O)n1C (stereo not drawn)
inactive
CCNC1(C(N)=O)CCN(Cc2ccccc2)CC1
inactive
NC(Cc1cccc([N+](=O)[O-])c1)C(=O)O (stereo not drawn)
inactive
CCCC(C)C(SC(CC)C(N)=O)C(=O)O (stereo not drawn)
inactive
CCCC(N)S(=O)(=O)O (stereo not drawn)
inactive
C[CH2][Sn]([CH2]C)([O]C(=O)c1cccc(F)c1)[O][Sn]([CH2]C)([CH2]C)[O]C(=O)c1cccc(F)c1
inactive
Cc1cc(Cl)ccc1NC(=O)C(=O)Cc1nc2ccc(C(=O)c3ccccc3)cc2[nH]c1=O
inactive
CC(C)(c1ccc(O)c([N+](=O)[O-])c1)c1ccc(O)c([N+](=O)[O-])c1
inactive
COc1cc(C2c3cc4c(c(OC(=O)c5ccncc5)c3CC3COC(=O)C32)OCO4)cc(OC)c1OC (stereo not drawn)
inactive
c1cnn([B-]2(n3cccn3)n3ccc[n+]3[B-](n3cccn3)(n3cccn3)n3ccc[n+]32)c1
inactive
NC(=O)c1ncccc1C(=O)O
inactive
CCOC(=O)NNC(N)=O
inactive
CC(=O)OC1CCC2(C)C(=CCC3C2CCC2(C)C(C(C)C(=O)O)CCC32)C1 (stereo not drawn)
inactive
CCCCCCCCOC1OC(COC(C)=O)C(OC(C)=O)C(OC(C)=O)C1OC(C)=O (stereo not drawn)
inactive
COc1ccc(-c2nnc(-c3ccc(OC)cc3)o2)cc1
inactive
N#CN=C(N(Cc1ccccc1)Cc1ccccc1)N(Cc1ccccc1)Cc1ccccc1
inactive
Cc1ccc(NC(=O)C(Br)C(Br)c2ccccc2)cc1Cl (stereo not drawn)
active
C=CC(=O)OCCCCCCCCCC
inactive
Cc1ccc(C)c(NC(=O)Oc2ccc(C(=O)OCc3ccccc3)cc2)c1
active
